Biological target: HiBit-BRG1 fusion protein (Homo sapiens, UniProt P51532)
Construct: expressed in transfected cells
Sequence (P51532 whole entry, the tested form may be a part): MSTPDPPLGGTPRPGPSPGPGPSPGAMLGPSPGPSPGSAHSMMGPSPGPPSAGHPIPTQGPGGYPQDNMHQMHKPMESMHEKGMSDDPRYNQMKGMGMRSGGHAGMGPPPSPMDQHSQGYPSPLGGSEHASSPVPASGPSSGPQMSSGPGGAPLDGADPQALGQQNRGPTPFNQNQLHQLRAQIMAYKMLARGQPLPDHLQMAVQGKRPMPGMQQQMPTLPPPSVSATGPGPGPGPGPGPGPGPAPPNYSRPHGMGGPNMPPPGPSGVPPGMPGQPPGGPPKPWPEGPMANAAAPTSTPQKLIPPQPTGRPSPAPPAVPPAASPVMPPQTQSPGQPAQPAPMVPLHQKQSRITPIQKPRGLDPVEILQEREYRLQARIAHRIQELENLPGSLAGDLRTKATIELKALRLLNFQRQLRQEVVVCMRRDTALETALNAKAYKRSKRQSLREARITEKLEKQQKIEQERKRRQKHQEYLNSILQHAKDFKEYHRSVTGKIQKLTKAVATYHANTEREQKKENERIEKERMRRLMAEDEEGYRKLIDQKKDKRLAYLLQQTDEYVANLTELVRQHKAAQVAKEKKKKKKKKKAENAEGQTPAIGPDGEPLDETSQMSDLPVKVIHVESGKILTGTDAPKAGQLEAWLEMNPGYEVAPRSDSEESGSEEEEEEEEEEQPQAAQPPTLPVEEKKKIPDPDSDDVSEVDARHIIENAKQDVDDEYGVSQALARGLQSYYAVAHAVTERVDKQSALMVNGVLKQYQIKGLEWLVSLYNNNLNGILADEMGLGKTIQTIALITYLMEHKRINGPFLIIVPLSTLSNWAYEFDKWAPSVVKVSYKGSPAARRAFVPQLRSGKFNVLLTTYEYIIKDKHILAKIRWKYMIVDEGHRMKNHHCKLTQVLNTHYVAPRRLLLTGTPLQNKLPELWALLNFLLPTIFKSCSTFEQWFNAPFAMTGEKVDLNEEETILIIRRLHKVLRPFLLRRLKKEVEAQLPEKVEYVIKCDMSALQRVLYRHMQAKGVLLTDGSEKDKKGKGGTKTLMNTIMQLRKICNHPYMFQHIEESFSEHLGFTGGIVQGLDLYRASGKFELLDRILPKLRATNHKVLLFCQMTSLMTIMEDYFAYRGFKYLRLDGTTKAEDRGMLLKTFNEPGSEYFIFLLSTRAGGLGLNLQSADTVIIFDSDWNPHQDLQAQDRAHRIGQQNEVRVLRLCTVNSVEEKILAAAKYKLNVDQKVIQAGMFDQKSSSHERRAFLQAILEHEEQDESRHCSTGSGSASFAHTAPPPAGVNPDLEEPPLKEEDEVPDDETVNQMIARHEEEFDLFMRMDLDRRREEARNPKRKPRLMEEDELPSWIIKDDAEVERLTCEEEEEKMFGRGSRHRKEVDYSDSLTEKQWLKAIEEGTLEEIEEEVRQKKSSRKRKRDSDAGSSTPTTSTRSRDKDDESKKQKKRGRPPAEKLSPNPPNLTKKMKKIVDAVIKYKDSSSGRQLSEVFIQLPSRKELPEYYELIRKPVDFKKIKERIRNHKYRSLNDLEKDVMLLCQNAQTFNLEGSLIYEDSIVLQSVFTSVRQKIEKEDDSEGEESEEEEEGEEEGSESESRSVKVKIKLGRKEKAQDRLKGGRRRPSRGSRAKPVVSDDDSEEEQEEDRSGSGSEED
Assay: HiBiT-BRG1 cell-based degradation assay (Nano-Glo HiBiT Lytic Detection, 24 h)
Details: stable HeLa cell line expressing HiBit-BRG1 and LgBit, top dose 30 μM, read-out: BRG1 HiBit Degradation Maximum (%)
observable: Dmax

Nc1nnc(-c2ccccc2O)cc1OCC12CC(C(=O)NCCCCCCCCNc3cccc4c3CN(C3CCC(=O)NC3=O)C4=O)(C1)C2 (stereo not drawn); < 50%
Nc1nnc(-c2ccccc2O)cc1OCC12CC(C(=O)NCCCCCCCCNc3ccc4c(c3)C(=O)N(C3CCC(=O)NC3=O)C4=O)(C1)C2 (stereo not drawn); < 50%

As a next step, examine the compound that follows.
Field: Dmax (HiBit-BRG1 fusion protein (Homo sapiens, UniProt P51532)). Entry: Cc1ncsc1-c1ccc(CNC(=O)[C@@H]2C[C@@H](O)CN2C(=O)[C@@H](NC(=O)COCCOCCOCCOCC(=O)NC23CC(CCOc4cc(-c5ccccc5O)nnc4N)(C2)C3)C(C)(C)C)cc1
< 50%
